The measurements presented in this section are drawn from ChEMBL document CHEMBL3286129.

growth at 10 µM: recorded values
- experimentSummary: Cytotoxicity against human prostate cancer cells assessed as cell growth at 10 uM relative to control
- Type: functional
- testConditions: Cancer cell lines, read-out: Activity
Dear colleague, please return just the value in %, with no unit written.

Here is how some compounds turned out for growth at 10 µM.
1) CC(C)C[C@H](NC(=O)CCn1ccc2ccc(Br)cc2c1=O)B(O)O	34.5
2) CC(C)CCNC(=O)Cn1ccc2ccccc2c1=O	101
3) CC(C)C[C@H](NC(=O)Cn1ccc2ccc(Br)cc2c1=O)B(O)O	42.9
4) CC(C)C[C@H](NC(=O)CCn1ccc2ncccc2c1=O)B(O)O	98.5
5) CC(C)C[C@H](NC(=O)Cn1ccc2ccccc2c1=O)B(O)O	80.2
6) COc1cc2ccn(CC(=O)N[C@@H](CC(C)C)B(O)O)c(=O)c2cc1OC	100

Give its growth at 10 µM value. Item: `COc1cc2ccn(CCC(=O)N[C@@H](CC(C)C)B(O)O)c(=O)c2cc1OC`
98.8

Give its growth at 10 µM value. Item: `CC(C)C[C@H](NC(=O)CCn1ccc2ccccc2c1=O)B(O)O`
57.8

Give its growth at 10 µM value. Item: `CC(C)CCNC(=O)CCn1ccc2ccc(Br)cc2c1=O`
103

Give its growth at 10 µM value. Item: `COc1cc2ccn(CCC(=O)NCCC(C)C)c(=O)c2cc1OC`
103
